I'd appreciate it if you could supply GI50 values for the items below.
# Test system: DU-145
# testDetails: NCI tumour cell line growth inhibition, 48 h
Calls of active or inactive are those of the source. Rule as the data show it: active = GI50 up to about 1.1 µM and inactive = higher.

GI50 reported for this compound Cc1cc2nc3c(C)c4ccccc4c(C)n3c2cc1C : 3.3 µM (inactive)

Entry O=C1/C(=C/c2ccc(OC(=O)c3ccccc3)cc2)CCC/C1=C\c1ccc(OC(=O)c2ccccc2)cc1 , GI50 reported as > 100 µM (inactive)

Record summary for Cc1ncc([N+](=O)[O-])n1CCNC(=O)CCn1ccnc1[N+](=O)[O-] : reported GI50 = > 100 µM (inactive)

Form field GI50, entry Oc1ncc(N(CCCl)CCCl)c(O)n1 [URACIL MUSTARD] : 22.3 µM (inactive)

Noted for CC(CC(=O)O)C(C(=O)O)C(=O)O (stereo unspecified) : its GI50 reads > 100 µM (inactive)

Measured GI50 of CC1SCc2nc3ccccc3n21 (stereo unspecified) : > 100 µM (inactive)

The compound listed as CCOC(=O)c1cn2c(n1)sc1cccc(C)c12 has a reported GI50 of > 100 µM (inactive)

Lab book: GI50 of CC(C)(CCCCC(C)(C)NC1=NCCO1)NC1=NCCO1 noted as > 10 µM (inactive)

Lookup result for Cc1coc2c1CC1OC1(C)CCC1OC1(C)C2 (stereo unspecified) ; measured GI50: > 100 µM (inactive)

Lab note: COc1cc(/N=N/N(C)C)c(C(C)c2c3cc(OC)c(OC)cc3cc[n+]2C)cc1OC (stereo unspecified) gave GI50 of 62.7 µM (inactive)

Per the record, Cc1cc(NC[C@H](O)[C@H](O)[C@H](O)CO)c(Sc2cc(=O)[nH]c(=O)[nH]2)cc1C has GI50 of > 62.5 µM (inactive)

###

# System: OVCAR-8
# testDetails: NCI tumour cell line growth inhibition, 48 h
Calls of active or inactive are those of the source. No stated cut-off is given here; in the data, active = GI50 up to about 1.1 µM and inactive = higher.
Give GI50 for every item shown.

The reported GI50 value, OVCAR-8, for [C-]#[N+]C(=C\c1ccc(O)cc1)/C(=C/c1ccc(O)cc1)[N+]#[C-] reads 1.28 µM (inactive)

Param item: O=c1nc2n3c4c(cccc4nc-2c(=O)[nH]1)CCC3 ; param system: OVCAR-8; output GI50: > 100 µM (inactive)

Test item CC(=O)Nc1ccc(C2=N/C(=C\c3ccc(Cl)c(Cl)c3)C(=O)O2)cc1 ; OVCAR-8; reported GI50 was > 100 µM (inactive)

OVCAR-8 data for CC(C)C1CN(C(=O)OCc2ccccc2)C2N1C(=O)C2(C)OCc1ccccc1 (stereo unspecified) ; its GI50: 45.4 µM (inactive)

Form: item COc1ccc(C(=O)O/N=C2/CCC/C2=C\c2ccccc2)cc1 ; test system OVCAR-8; GI50: > 100 µM (inactive)

The measured GI50 that COC(=O)c1nc(-c2ccc(Cl)c(Cl)c2)nc2ccc(Cl)cc12 showed for OVCAR-8 is 47.4 µM (inactive)

Query Cc1cc(O)no1 on OVCAR-8; GI50 returned: > 100 µM (inactive)

With OVCAR-8 as the test system, COc1ccc2cc(CNCCCCCCNC(=O)Nc3cccc4ccccc34)ccc2c1 showed GI50 of > 100 µM (inactive)

Bench note, OVCAR-8: COC(=O)[C@@H]1CCCN1CCN1CCC[C@H]1C(=O)OC , GI50 reads > 100 µM (inactive)

OVCAR-8 GI50 of O=C1CCCCC1CN1CCCC1 (stereo unspecified) is > 100 µM (inactive)

Tested system OVCAR-8; GI50 recorded for CS/C(=N/C(=O)c1ccccc1)SCCS/C(=N\C(=O)c1ccccc1)SC was > 100 µM (inactive)

Short answer on OVCAR-8 for O=C1N[C@@H]([C@H](CCCCCO)OC(=O)c2ccccc2)CO1 , GI50: > 100 µM (inactive)

GI50 value, target or system OVCAR-8, for C#CCn1c2c(c3ccccc3c1=O)C(=O)c1ccccc1-2 : 19.6 µM (inactive)

Field GI50 (OVCAR-8), entry C[C@@]12C[C@@H](c3ccccc3O1)N1Cc3ccccc3CSC1=N2 : > 100 µM (inactive)

Considering C/C(C=O)=C1\C(O)C[C@]1(C)C1CC(C)(C)CC1O (stereo partly specified) , its GI50 with OVCAR-8 was recorded as > 100 µM (inactive)

Sample COc1cc(Cc2nccc3cc(OC)c(OC)cc23)c(/N=N/N(C)C)cc1OC , system: OVCAR-8. Its GI50 is 15.7 µM (inactive)

Values from ChEMBL document CHEMBL1201862
